Data provenance: paper PMC11033320

test system: OVCAR-5; assay: NCI anticancer screening, Ovarian Cancer OVCAR-5; assay type: cell-based; conditions: Homo sapiens; OVCAR-5, 10 μM; read-out: % Growth Inhibition (GI %)
attributeMeasured: inhibition at 10 µM (%)

>>> df
                                    compound  measuredtarget  observedmeasurement
 0  O=C(c1nc2ccccc2[nH]1)[C@H]1[C@H](c2ccccc2O)C2CSCN2[C@]12C(=O)Nc1ccccc12 (some centres unmarked)         OVCAR-5                  102
 1  Cc1ccc([C@@H]2C3CSCN3[C@]3(C(=O)Nc4ccccc43)[C@H]2C(=O)c2nc3ccccc3[nH]2)cc1 (mixture of isomers)         OVCAR-5                 95.2
 2  O=C(c1nc2ccccc2[nH]1)[C@H]1[C@H](c2ccc(C(F)(F)F)cc2)C2CSCN2[C@]12C(=O)Nc1ccccc12 (some centres unmarked)         OVCAR-5                 96.1
 3  O=C(c1nc2ccccc2[nH]1)[C@H]1[C@H](c2ccco2)C2CSCN2[C@]12C(=O)Nc1ccccc12 (some centres unmarked)         OVCAR-5                 97.2
 4  O=C(c1nc2ccccc2[nH]1)[C@H]1[C@H](c2cccc(O)c2)C2CSCN2[C@]12C(=O)Nc1ccccc12 (some centres unmarked)         OVCAR-5                 92.9
 5  O=C(c1nc2ccccc2[nH]1)[C@H]1[C@H](c2ccc(Cl)cc2Cl)C2CSCN2[C@]12C(=O)Nc1ccccc12 (some centres unmarked)         OVCAR-5                 86.1
 6  O=C(c1nc2ccccc2[nH]1)[C@H]1[C@H](c2ccc(F)cc2)C2CSCN2[C@]12C(=O)Nc1ccccc12 (some centres unmarked)         OVCAR-5                  100
 7  O=C(c1nc2ccccc2[nH]1)[C@H]1[C@H](c2ccc(Cl)cc2)C2CSCN2[C@]12C(=O)Nc1ccccc12 (some centres unmarked)         OVCAR-5                 92.5
 8  COc1cc([C@@H]2C3CSCN3[C@]3(C(=O)Nc4ccccc43)[C@H]2C(=O)c2nc3ccccc3[nH]2)cc(OC)c1OC (some centres unmarked)         OVCAR-5                 94.3
 9  O=C(c1nc2ccccc2[nH]1)[C@H]1[C@H](c2cccs2)C2CSCN2[C@]12C(=O)Nc1ccccc12 (some centres unmarked)         OVCAR-5                 96.2
10  CN(C)c1ccc([C@@H]2C3CSCN3[C@]3(C(=O)Nc4ccccc43)[C@H]2C(=O)c2nc3ccccc3[nH]2)cc1 (some centres unmarked)         OVCAR-5                 95.6
11  O=C(c1nc2ccccc2[nH]1)[C@H]1[C@H](c2ccccc2)C2CSCN2[C@]12C(=O)Nc1ccccc12 (mixture of isomers)         OVCAR-5                  104
12  O=C(c1nc2ccccc2[nH]1)[C@H]1[C@H](c2cccc(F)c2)C2CSCN2[C@]12C(=O)Nc1ccccc12 (some centres unmarked)         OVCAR-5                 90.5
13  O=C(c1nc2ccccc2[nH]1)[C@H]1[C@H](c2ccc(Br)cc2)C2CSCN2[C@]12C(=O)Nc1ccccc12 (some centres unmarked)         OVCAR-5                 95.9

====

system: SK-MEL-28; assay: NCI anticancer screening, Melanoma SK-MEL-28; assay type: cell-based; details: Homo sapiens; SK-MEL-28, 10 μM; read-out: % Growth Inhibition (GI %)
Reported values of inhibition at 10 µM for individual entries
attributeMeasured: inhibition at 10 µM (%)

>>> print(df.to_string())
                                   compound    attributemeasured  observedmeasurement
0  CN(C)c1ccc([C@@H]2C3CSCN3[C@]3(C(=O)Nc4ccccc43)[C@H]2C(=O)c2nc3ccccc3[nH]2)cc1 (stereo partly drawn)  inhibition at 10 µM                 96.1
1  COc1cc([C@@H]2C3CSCN3[C@]3(C(=O)Nc4ccccc43)[C@H]2C(=O)c2nc3ccccc3[nH]2)cc(OC)c1OC (stereo partly drawn)  inhibition at 10 µM                  107
2  Cc1ccc([C@@H]2C3CSCN3[C@]3(C(=O)Nc4ccccc43)[C@H]2C(=O)c2nc3ccccc3[nH]2)cc1 (mixture of isomers)  inhibition at 10 µM                 98.8
3  O=C(c1nc2ccccc2[nH]1)[C@H]1[C@H](c2ccc(Cl)cc2Cl)C2CSCN2[C@]12C(=O)Nc1ccccc12 (stereo partly drawn)  inhibition at 10 µM                 78.3
4  O=C(c1nc2ccccc2[nH]1)[C@H]1[C@H](c2ccc(F)cc2)C2CSCN2[C@]12C(=O)Nc1ccccc12 (stereo partly drawn)  inhibition at 10 µM                  102
5  O=C(c1nc2ccccc2[nH]1)[C@H]1[C@H](c2ccccc2O)C2CSCN2[C@]12C(=O)Nc1ccccc12 (stereo partly drawn)  inhibition at 10 µM                   99

====

test system: T-47D; assay: NCI anticancer screening, Breast Cancer T-47D; type: cell-based; conditions: Homo sapiens, T47D, read-out: % Growth Inhibition (GI %)
This listing pairs molecules with measured inhibition at 10 µM.
attributeMeasured: inhibition at 10 µM (%)

                                   molecule  measuredtarget  observedmeasurement
0  O=C(c1nc2ccccc2[nH]1)[C@H]1[C@H](c2ccc(Cl)cc2Cl)C2CSCN2[C@]12C(=O)Nc1ccccc12 (stereo partly shown) [Compound 6g]           T-47D                 54.4
1  O=C(c1nc2ccccc2[nH]1)[C@H]1[C@H](c2ccc(C(F)(F)F)cc2)C2CSCN2[C@]12C(=O)Nc1ccccc12 (stereo partly shown) [Compound 6c]           T-47D                 69.7
2  CN(C)c1ccc([C@@H]2C3CSCN3[C@]3(C(=O)Nc4ccccc43)[C@H]2C(=O)c2nc3ccccc3[nH]2)cc1 (stereo partly shown) [Compound 6k]           T-47D                   83
3  Cc1ccc([C@@H]2C3CSCN3[C@]3(C(=O)Nc4ccccc43)[C@H]2C(=O)c2nc3ccccc3[nH]2)cc1 (mixture of isomers) [Compound 6d]           T-47D                 68.8
4  O=C(c1nc2ccccc2[nH]1)[C@H]1[C@H](c2cccc(O)c2)C2CSCN2[C@]12C(=O)Nc1ccccc12 (stereo partly shown) [Compound 6h]           T-47D                 76.3
5  O=C(c1nc2ccccc2[nH]1)[C@H]1[C@H](c2ccccc2)C2CSCN2[C@]12C(=O)Nc1ccccc12 (mixture of isomers) [Compound 6a]           T-47D                   88
6  O=C(c1nc2ccccc2[nH]1)[C@H]1[C@H](c2cccs2)C2CSCN2[C@]12C(=O)Nc1ccccc12 (stereo partly shown) [Compound 6e]           T-47D                 90.5

====

system: SK-MEL-28; assay: NCI anticancer screening, Melanoma SK-MEL-28; type: cell-based; settings: Homo sapiens; SK-MEL-28, 10 μM; read-out: % Growth Inhibition (GI %)
The following compounds are shown together with reported inhibition at 10 µM values.
attributeMeasured: inhibition at 10 µM (%)

>>> df
                                   compound  measuredtarget    attributemeasured  observedmeasurement
0  O=C(c1nc2ccccc2[nH]1)[C@H]1[C@H](c2cccc(F)c2)C2CSCN2[C@]12C(=O)Nc1ccccc12 (some centres unmarked)       SK-MEL-28  inhibition at 10 µM                  102
1  O=C(c1nc2ccccc2[nH]1)[C@H]1[C@H](c2ccc(Br)cc2)C2CSCN2[C@]12C(=O)Nc1ccccc12 (some centres unmarked)       SK-MEL-28  inhibition at 10 µM                 84.8
2  O=C(c1nc2ccccc2[nH]1)[C@H]1[C@H](c2cccc(O)c2)C2CSCN2[C@]12C(=O)Nc1ccccc12 (some centres unmarked)       SK-MEL-28  inhibition at 10 µM                 95.3
3  O=C(c1nc2ccccc2[nH]1)[C@H]1[C@H](c2ccco2)C2CSCN2[C@]12C(=O)Nc1ccccc12 (some centres unmarked)       SK-MEL-28  inhibition at 10 µM                  107
4  O=C(c1nc2ccccc2[nH]1)[C@H]1[C@H](c2ccc(Cl)cc2)C2CSCN2[C@]12C(=O)Nc1ccccc12 (some centres unmarked)       SK-MEL-28  inhibition at 10 µM                 92.2
